Read-out: succinate dehydrogenase complex iron sulfur subunit B (SDHB), SDHB (gene 6390)
Experiment: LTEA_HepaRG_SDHB: Life Technologies and Expression Analysis (LTEA) Assay for succinate dehydrogenase complex iron sulfur subunit B (SDHB) using HepaRG (AID 2283528)
Details: mRNA level, 48 h; actives raise or lower the signal
Active and inactive are the calls of the source. Rule for the calls: active = hit-call score of the fitted dose curve at least 0.9, where 1 is the maximum; inactive = score below 0.9.
Outcome codes: active, inactive

Cc1ccc(C)c(O)c1	inactive
CC(C)CCO	inactive
CCCCCCCCCCCCCCCO	inactive
CC(=O)c1ccc2c(c1)[C@H](NC(=O)c1ccc(F)cc1)[C@@H](O)C(C)(C)O2	inactive
CCOC(=O)c1ccc(C2CCC(NC[C@H](O)COc3ccc(O)c(NS(C)(=O)=O)c3)CC2)cc1 (some centres undefined)	inactive
CC[C@H]1CC[C@H](NCc2cc3c(cc2OC)[C@H]2C[C@H]2C(=O)N3C)[C@H](c2ccccc2)N1	inactive
COC(=O)CC(=O)OC	inactive
CCCCC(CC)COC(=O)c1ccc(C(=O)OCC(CC)CCCC)cc1 (centres undefined)	inactive
O=P(OC(CCl)CCl)(OC(CCl)CCl)OC(CCl)CCl	active

// data source = PubChem BioAssay (EPA / NIEHS)
